Provide the recorded sensor-assay potency score (higher = more potent) for the entries that follow.
biological target: RAD54L; assay: pooled miR-30 sensor sort-seq; sequence = guide strand; details: shRNA; also: reference of the scale not given here
Answers are plain numbers.

# annotated cases, reported sensor-assay potency score (higher = more potent) shown
- TTCTTGATGATTTTCTCCCAGA: -0.985
- TTGACCATCTCGCCAGACCCGG: -1.03
- TAGATATAGCAAGTCTTCTTTT: -1.02
- TTGATTGGTTAGCTGACTCAAA: -0.506
- TTAACAAAATGTACCAAGCTGA: -0.415

Q: I'd like to know its sensor-assay potency score (higher = more potent). The sequence in question is "TTACAAAGCTTCTTTAGCGAGG"
A: -0.517

----------
molecular target: NOMO3; experiment: pooled miR-30 sensor sort-seq; sequence = guide strand; settings: shRNA
Task for the reader: assign each of the following sequences its reported sensor-assay potency score (higher = more potent).
Answers are plain numbers.

* TTGTCTCTTTGCATCTTCTGGG | -0.0196
* TTGGTGTACAGCTTTATCTCGA | 0.0866
* TATCTGACCACAGACACTGAAC | -1.06
* TTATTTTGTATTTTCCAGGGAG | 0.546
* TAACAGTGATTTTCTCTCCAGA | -0.602

Next sequence, please.
Q: Could you tell me which sensor-assay potency score (higher = more potent) is on file for "TAGAACGCTTGCTCAAACCGGT" ?
A: 0.161

----------
Answer each item with its documented sensor-assay potency score (higher = more potent).
biological target: GP1BA; test: pooled miR-30 sensor sort-seq; sequence = guide strand; details: shRNA
One number for each entry.

- TTGACCACAGTCCTTGTGGCAC: -0.461
- TTCAGCATTGTCCTGCAGCCAG: -0.558
- ATTTTCAGCATTGTCCTGCAGC: -0.496
- TTTGGTATTGTATACAGCGAGT: -0.992
- TTTCAGGTAGAGCTCTTGGAGT: -0.846

Batch lookup, sensor-assay potency score (higher = more potent) per entry.
1. TAGACGGGAAACTTGTCTGAAT
2. TATACAGCGAGTTCTCTTGGAG
3. TAGAGGATCTCACAGTTGCATA
4. TAGTGGATTCTTGTGTTGGATG

A:
1: -0.507; 2: -0.385; 3: -1.69; 4: -1.15

----------
biological target: ASCC1; experiment: pooled miR-30 sensor sort-seq; sequence = guide strand; conditions: shRNA
If the reported sensor-assay potency score (higher = more potent) equals or exceeds -0.4, assign True. If not, assign False.

Worked examples follow.
* TCAACTAATTCTTGTAGCCTGT | True
* TAGAAGTTCTCAAACAACTTTA | True
* TTTCACACTATTCCACTCTTTC | False
* TTGGACTGGATTCTTCCTGTAA | True
* TTCTTCATGTTGATAGGTCTGT | True

Q: Given the entry "TCCATTTCTATTTTCTTCCTAG" , answer whether its sensor-assay potency score (higher = more potent) meets or surpasses -0.4.
A: False

Q: Check the entry "TAGACCGGAATCCTTGTGGGGT" : does sensor-assay potency score (higher = more potent) equal or exceed -0.4?
A: False

Q: Determine whether measured sensor-assay potency score (higher = more potent) meets or exceeds -0.4 for "TATGCTTATAGAGCAAGCTGGG"
A: False
